# target-or-test-system: EGFR del19/T790M/C797S (Homo sapiens, UniProt P00533, C797S/DEL746-750/T790M)
# Sequence (P00533 with tags, fused parts or gaps DEL746-750/T790M/C797S): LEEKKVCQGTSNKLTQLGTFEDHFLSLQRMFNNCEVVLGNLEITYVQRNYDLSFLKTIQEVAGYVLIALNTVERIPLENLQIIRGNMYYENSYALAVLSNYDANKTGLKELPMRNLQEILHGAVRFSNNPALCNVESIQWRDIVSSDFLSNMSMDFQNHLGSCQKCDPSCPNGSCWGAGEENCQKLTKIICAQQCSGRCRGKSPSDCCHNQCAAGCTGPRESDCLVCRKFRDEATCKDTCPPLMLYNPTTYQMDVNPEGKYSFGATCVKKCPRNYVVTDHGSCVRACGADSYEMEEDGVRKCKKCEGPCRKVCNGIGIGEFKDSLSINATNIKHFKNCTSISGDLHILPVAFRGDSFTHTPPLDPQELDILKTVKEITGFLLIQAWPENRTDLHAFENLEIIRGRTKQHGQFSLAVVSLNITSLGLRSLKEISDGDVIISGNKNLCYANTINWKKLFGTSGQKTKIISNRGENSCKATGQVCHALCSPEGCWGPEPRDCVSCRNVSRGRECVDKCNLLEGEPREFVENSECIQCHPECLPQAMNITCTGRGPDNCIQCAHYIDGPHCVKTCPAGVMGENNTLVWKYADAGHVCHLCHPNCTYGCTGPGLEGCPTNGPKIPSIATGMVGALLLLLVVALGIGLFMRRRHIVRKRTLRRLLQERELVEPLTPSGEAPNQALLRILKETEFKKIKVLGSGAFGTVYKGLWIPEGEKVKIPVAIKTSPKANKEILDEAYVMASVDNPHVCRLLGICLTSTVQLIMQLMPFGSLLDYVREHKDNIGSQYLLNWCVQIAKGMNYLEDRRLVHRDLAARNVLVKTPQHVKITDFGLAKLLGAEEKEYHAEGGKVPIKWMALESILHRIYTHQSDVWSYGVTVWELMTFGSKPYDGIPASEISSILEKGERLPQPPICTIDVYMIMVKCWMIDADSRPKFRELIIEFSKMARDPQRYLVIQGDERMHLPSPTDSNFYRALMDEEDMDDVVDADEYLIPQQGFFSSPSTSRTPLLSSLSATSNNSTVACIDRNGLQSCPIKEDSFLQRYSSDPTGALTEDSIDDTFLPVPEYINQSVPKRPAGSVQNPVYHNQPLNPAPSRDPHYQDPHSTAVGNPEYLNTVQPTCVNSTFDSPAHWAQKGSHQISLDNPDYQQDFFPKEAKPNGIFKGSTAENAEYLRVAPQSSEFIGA
# experiment-summary: Biochemical EGFR kinase assay (Lance Ultra TR-FRET), triple mutant del19/T790M/C797S
# cond: ATP at Km; read-out: IC50 del19/T790M/C797S, Km ATP
For each of the molecules below, state its log10(IC50).
Parameter value (number): base-10 log of IC50 in nM.

(Q) Dear colleague, please send me the reported log10(IC50) for C[C@]1(O)CC[C@@H](Nc2cc(Nc3ccnc(-c4cnn(S(=O)(=O)C5CC5)c4)n3)ncc2-c2ccc(C(F)(F)F)c(F)n2)CC1 when you can.
(A) 0.74

(Q) Name the recorded log10(IC50) of the molecule listed here: O=S(=O)(C1CC1)n1cc(-c2nccc(Nc3cc(N[C@H]4CCC[C@H](CO)C4)c(-c4ccc(CC(F)(F)F)cn4)cn3)n2)cn1
(A) 0.59

(Q) Query log10(IC50) for CC1(O)CCC(Nc2cc(Nc3ccnc(-c4cnn(S(=O)(=O)C5CC5)c4)n3)ncc2-c2ccc(C(O)C(F)(F)F)cn2)CC1 (stereo not drawn)
(A) -0.10

(Q) Find the measured log10(IC50) of CN1CCC(Oc2ccc(-c3cnc(Nc4ccnc(-c5cnn(S(=O)(=O)C6CC6)c5)n4)cc3N[C@H]3CC[C@@H](F)CC3)nn2)CC1 and report it.
(A) -0.52

(Q) Please give the documented log10(IC50) of CC(C)Nc1cc(Nc2ccnc(-c3cnn(S(=O)(=O)C4CC4)c3)n2)ncc1-c1ccc(OC2CCN(C)CC2)cn1
(A) -0.30

(Q) Tell me its log10(IC50) given CN(C)CCOc1ccnc(-c2cnc(Nc3ccnc(-c4cnn(S(=O)(=O)C5CC5)c4)n3)cc2N[C@H]2CC[C@@](C)(O)CC2)c1 as the entry.
(A) -0.70

(Q) Please look at this molecule and report its log10(IC50): CN(C)CCOc1ccc(-c2cnc(Nc3ccnc(-c4cnn(S(=O)(=O)C5CC5)c4)n3)cc2N[C@H]2CC[C@@H](C(C)(C)O)CC2)nc1
(A) -0.52

(Q) Quickly give me recorded log10(IC50) for CN(C)C[C@H]1CC[C@@H](Nc2cc(Nc3ccnc(-c4cnn(S(=O)(=O)C5CC5)c4)n3)ncc2-c2ccc(OC(F)(F)F)cn2)CC1
(A) -0.22

(Q) Quote log10(IC50) reported for Cc1ccc(-c2cnc(Nc3ccnc(-c4cnn(S(=O)(=O)C5CC5)c4)n3)cc2N[C@H]2CC[C@@](C)(O)CC2)nc1F please.
(A) -0.05

(Q) Give the reported value of log10(IC50) for this record: CC(C)(O)c1ccc(-c2cnc(Nc3ccnc(-c4cnn(S(=O)(=O)C5CC5)c4)n3)cc2N[C@H]2CC[C@@H](C(C)(C)O)CC2)nc1
(A) 0.11

(Q) Supply recorded log10(IC50) for CN(C)C[C@H]1CC[C@@H](Nc2cc(Nc3ccnc(-c4cnn(S(=O)(=O)C5CC5)c4)n3)ncc2-c2cccc(CC(F)(F)F)n2)CC1 here.
(A) -0.40

(Q) Answer with reported log10(IC50) of CN(C)C[C@H]1CC[C@@H](Nc2cc(Nc3ccnc(-c4cnn(S(=O)(=O)C5CC5)c4)n3)ncc2-c2cc(NC3CC(F)(F)C3)ccn2)CC1
(A) 0.08

(Q) Give me measured log10(IC50), please, for this molecule: CC1(O)CCC(Nc2cc(Nc3ccnc(-c4cnn(S(=O)(=O)C5CC5)c4)n3)ncc2-c2cc(CN3CC(O)C3)ccn2)CC1 (stereo not drawn)
(A) -0.70

(Q) Give me measured log10(IC50), please, for this molecule: CN(C)CCOc1ccc(-c2cnc(Nc3ccnc(-c4cnn(S(=O)(=O)C5CC5)c4)n3)cc2N[C@H]2CC[C@@H](CO)CC2)nc1
(A) -1.00

(Q) Let me know recorded log10(IC50) for CC(O)(c1ccc(-c2cnc(Nc3ccnc(-c4cnn(S(=O)(=O)C5CC5)c4)n3)cc2NC2CCC(CO)CC2)nc1)C(F)(F)F (stereo not drawn) , thanks.
(A) 0.15

(Q) Specify reported log10(IC50) for the molecule shown: CN1CC(Oc2ccc(-c3cnc(Nc4ccnc(-c5cnn(S(=O)(=O)C6CC6)c5)n4)cc3N[C@H]3CC[C@@](C)(O)CC3)nc2)C1
(A) -0.70

(Q) Write down log10(IC50) measured for item CN(C)S(=O)(=O)c1ccc(-c2cnc(Nc3ccnc(-c4cnn(S(=O)(=O)C5CC5)c4)n3)cc2N[C@H]2CC[C@@H](CO)CC2)nc1
(A) 0.28

(Q) Give log10(IC50) for O=S(=O)(C1CC1)n1cc(-c2nccc(Nc3cc(N[C@H]4CC[C@@H](CO)CC4)c(-c4ccc(CC(F)(F)F)cn4)cn3)n2)cn1
(A) 0.51
